System: HIV-1 (NL4-3 strain)
Assay: Assay for inhibition of HIV replication (ViKinG; infected MT4-GFP cells)
Type: cell-based
Settings: MT4-GFP cells infected with HIV-1 NL4-3; 100% normal human serum (NHS); read-out: ViKinG IP (nM) with 100% NHS
Experimental: Assay for inhibition of HIV replication MT4-GFP cells (250,000 cells/ml) were bulk-infected with HIV-1 (NL4-3 strain) at low multiplicity of infection (MOI) in RPMI+10% FBS for 24 hours. […] Test compounds were serial-diluted in DMSO on ECHO. […] The infected cells (Green GFP cells) were quantified at both 24 and 48 hours post incubation using Acumen eX3. Viral reproductive ratio (R0) was determined using the number of infected cells at 48 hours divided by the number of infected cells at 24 hours. […]
The threshold is 400 nM. Values of IC50 beneath it are tagged fulfilled; values meeting or exceeding it are tagged not fulfilled.

Known results for molecules:
API: query returns whether the molecule falls strictly under 400 nM in IC50. Query: CN1C2COCCN2C(=O)c2c(O)c(=O)c(-c3nnc(Cc4ccc(F)cc4)s3)cn21 (stereo not shown) [Compound 161]
not fulfilled

API: query returns whether the molecule falls strictly under 400 nM in IC50. Query: CN1C(=O)c2c(O)c(=O)c(-c3nnc(Cc4ccc(F)cc4F)s3)cn2N(C)C12CCC(C)(CO)CC2 (stereo not shown) [Compound 86]
fulfilled

API: query returns whether the molecule falls strictly under 400 nM in IC50. Query: CCN1C(=O)c2c(O)c(=O)c(-c3nnc(Cc4ccc(F)cc4F)s3)cn2N(C)C12CCC(O)CC2 (stereo not shown) [Compound 52]
fulfilled

API: query returns whether the molecule falls strictly under 400 nM in IC50. Query: CCN1C(=O)c2c(O)c(=O)c(-c3nnc(Cc4ccc(F)cc4F)s3)cn2N(C)C12CCC(OC(C)C)CC2 (stereo not shown) [Compound 62]
fulfilled

API: query returns whether the molecule falls strictly under 400 nM in IC50. Query: CCN1C(=O)c2c(O)c(=O)c(-c3nnc(Cc4ccc(F)cc4F)s3)cn2N(C)C12CCC(Oc1ccccc1)CC2 (stereo not shown) [Compound 54]
not fulfilled

Next:
API: query returns whether the molecule falls strictly under 400 nM in IC50. Query: CN1C(=O)c2c(O)c(=O)c(-c3nnc(Cc4ccc(F)cc4F)s3)cn2N(C)C12CCC(C(=O)N1CC(F)(F)C1)CC2 (stereo not shown) [Compound 119]
fulfilled

---

Tested on: HIV-1 (NL4-3 strain)
Experiment: Assay for inhibition of HIV replication (ViKinG; infected MT4-GFP cells)
Type: cell-based
Details: MT4-GFP cells infected with HIV-1 NL4-3; 100% normal human serum (NHS); read-out: ViKinG IP (nM) with 100% NHS
measurement-label: log10 of IC50 (log10 of the value in nM)
Use the decimal logarithm of IC50 (nM).

Here is how some compounds turned out for log10 of IC50.
Report log10 of IC50 from HIV-1 (NL4-3 strain) testing of CN1C2C(O)CCCN2C(=O)c2c(O)c(=O)c(-c3nnc(Cc4ccc(F)cc4F)s3)cn21 (stereo not drawn) [Compound 164]
1.91

Report log10 of IC50 from HIV-1 (NL4-3 strain) testing of CCOC1CCC2(CC1)N(CC)C(=O)c1c(O)c(=O)c(C(=O)NCc3ccc(F)cc3F)cn1N2C (stereo not drawn) [Compound 192]
1.83

Report log10 of IC50 from HIV-1 (NL4-3 strain) testing of COC1CCC2(CC1)Cn1cc(-c3nnc(Cc4ccc(F)cc4F)s3)c(=O)c(O)c1C(=O)N2C (stereo not drawn) [Compound 213]
1.55

Report log10 of IC50 from HIV-1 (NL4-3 strain) testing of CCN1C(=O)c2c(O)c(=O)c(-c3nnc(Cc4ccc(F)cc4F)s3)cn2N(C)C12CCC(C(=O)N(C)CC(F)(F)F)CC2 (stereo not drawn)
2.16

Report log10 of IC50 from HIV-1 (NL4-3 strain) testing of CCN1C(=O)c2c(O)c(=O)c(-c3nnc(Cc4ccc(F)cc4F)s3)cn2N(C)C12CCC(OCCOC)CC2 (stereo not drawn)
2.09

Let us examine a further case.
Report log10 of IC50 from HIV-1 (NL4-3 strain) testing of CN1C(=O)c2c(O)c(=O)c(-c3nnc(Cc4ccc(F)cc4F)s3)cn2N(C)C12CCC(C(=O)N1CC(F)(F)C1)CC2 (stereo not drawn) [Compound 120]
2.71
